Test system: BDF1 mice, B16 melanoma ip, median survival T/C
Test: NCI In Vivo Anticancer Drug Screen. Data for tumor model B16 Melanoma (intraperitoneal) in B6D2F1 (BDF1) mice
Conditions: endpoint: median survival time; dose: 6.0 mg/kg/injection; schedule: Q01DX009 (ip); vehicle: saline with Tween-80; higher = longer survival
Experimental: The antitumor activity of compounds was measured in mice bearing transplantable tumors. Survival or tumor size were measured and the results are expressed as the measurement made in the treated group (T) divided by the measurement made in the vehicle treated control group (C). The tumor model used in this assay is B16 Melanoma (intraperitoneal) in B6D2F1 (BDF1) mice
Inconclusive results and toxic doses are left out.

SMILES_ENTRY: Cc1cc(C)[c]([Hg][Cl])c(C)c1
T/C: 99 % of control

SMILES_ENTRY: CC1=C(/C=C/C(C)=N/NC(N)=S)C(C)(C)CCC1
T/C: 97 % of control

SMILES_ENTRY: CC(=O)Nc1c(Cl)c(Cl)c2c(c1Cl)Cc1cc(Br)ccc1-2
T/C: 100 % of control

SMILES_ENTRY: CC(=N\O)/C(C)=N/O.CC(=N\O)/C(C)=N/O.[Ni]
T/C: 87 % of control

Values compiled from PubChem BioAssay AID192.
